Target: JMJD3 JmjC domain labelled for microscale thermophoresis (UniProt O15054 1339-1502, labeled with Protein Labeling kit RED-NHS)
Sequence (O15054 1339-1502): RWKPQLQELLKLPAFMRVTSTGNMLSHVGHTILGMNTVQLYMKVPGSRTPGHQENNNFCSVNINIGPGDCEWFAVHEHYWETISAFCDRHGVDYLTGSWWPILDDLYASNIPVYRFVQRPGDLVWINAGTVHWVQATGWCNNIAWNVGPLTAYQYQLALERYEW
Assay: MST
Ends that are not written are not given here. Me3 = trimethyl-lysine; Me2 = dimethyl-lysine
parameter-measured: pKd
Note on pKd: it is the negative log10 of concentration, concentration in mol/L.

Looking for the measured pKd of NARRKAAP (peptide, UniProt Q9Y3C1 25-32, looked up, also: biotin) [NOP16 aa 25-32 peptide, unmethylated K29] , can you help?
3.99

Could you do the same for NARRK(Me3)AAP (peptide, UniProt Q9Y3C1 25-32, looked up, also: biotin) [NOP16 aa 25-32 peptide, tri-methylated K29] , please?
4.49

Could you do the same for NARRK(Me)AAP (peptide, UniProt Q9Y3C1 25-32, looked up, also: biotin) [NOP16 aa 25-32 peptide, mono-methylated K29] , please?
3.46

Could you do the same for NARRK(Me2)AAP (peptide, UniProt Q9Y3C1 25-32, looked up, also: biotin) [NOP16 aa 25-32 peptide, di-methylated K29] , please?
3.51

Data origin: paper doi:10.1101/2023.06.13.544862
